Tested on: MHH-CALL-3
test-details: selective drug sensitivity score (sDSS, relative to normal bone marrow) (sDSS (score)); higher = more potent and effective on the cell line relative to normal bone marrow cells;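 also: ALL cell lines in 384-well plates, five doses spanning 10,000-fold, each plate scaled between vehicle and 100 µmol/L benzalkonium chloride controls, sDSS an adapted area-under-curve metric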
protocol-conditions: 72 h
Please note: True applies when selective drug sensitivity score is -0.1 or greater, and False applies otherwise.

1) Cc1cc(-c2nc(-c3ccc(OC(F)(F)F)cc3)no2)nn1Cc1ccnc(N2CCN(C3CC3)CC2)c1 [BAY_87-2243] (top concentration 1000 nM): False
2) O=C(NC1CCNCC1)c1n[nH]cc1NC(=O)c1c(Cl)cccc1Cl [AT7519] (top concentration 10000 nM): False
3) COc1cc(N2CCC(N3CCN(C)CC3)CC2)ccc1Nc1ncc(Cl)c(Nc2ccccc2P(C)(C)=O)n1 [Brigatinib] (top concentration 1000 nM): False
4) CC[C@]12C=CCN3CC[C@@]4(c5cc([C@@]6(C(=O)OC)C[C@@H]7C[C@@H](C(C)(F)F)CN(Cc8c6[nH]c6ccccc86)C7)c(OC)cc5N(C)[C@H]4[C@@](O)(C(=O)OC)[C@@H]1OC(C)=O)[C@@H]32 [Vinflunine] (top concentration 1000 nM): False
5) COc1cccc2c1C(=O)c1c(O)c3c(c(O)c1C2=O)C[C@@](O)(C(=O)CO)C[C@@H]3O[C@H]1C[C@H](N)[C@H](O)[C@H](C)O1 [Doxorubicin] (top concentration 1000 nM): True

* * *

Quick reference: selective drug sensitivity score of the listed items.
Test system: MHH-CALL-4
test-details: selective drug sensitivity score (sDSS, relative to normal bone marrow) (sDSS (score)); higher = more potent and effective on the cell line relative to normal bone marrow cells
protocol-conditions: 72 h
endpoint-label: selective drug sensitivity score

1. COc1cc2ncnc(Nc3cccc(Cl)c3F)c2cc1OC(=O)N1CCN(C)C[C@H]1C [AZD3759] (top concentration 1000 nM): -0.04
2. O=C1CN2Cc3c(ccc(Cl)c3Cl)N=C2N1 [Anagrelide] (top concentration 10000 nM): 0.6
3. CS(=O)(=O)N1CCN(Cc2cc3nc(-c4cccc5[nH]ncc45)nc(N4CCOCC4)c3s2)CC1 [Pictilisib] (top concentration 10000 nM): 9.26
4. COC(=O)c1ccc([C@H]2c3[nH]c4ccccc4c3C[C@H](C(=O)OC)N2C(=O)CCl)cc1 [RSL3] (top concentration 10000 nM): 0
5. CC(C)c1cc(C(=O)N2Cc3ccc(CN4CCN(C)CC4)cc3C2)c(O)cc1O [Onalespib] (top concentration 2500 nM): -0.48
6. COc1cc([C@@H]2c3cc4c(cc3[C@@H](O[C@@H]3O[C@@H]5CO[C@@H](c6cccs6)O[C@H]5[C@H](O)[C@H]3O)[C@H]3COC(=O)[C@H]23)OCO4)cc(OC)c1O [Teniposide] (top concentration 10000 nM): 0
7. Cc1noc2c1-c1ccccc1C(c1ccc(Cl)cc1)=N[C@H]2CC(N)=O [CPI-0610] (top concentration 10000 nM): -4.1
8. CC(C)(O)CC(=O)NCCn1ccc2ncnc(Nc3ccc(Oc4cccc(C(F)(F)F)c4)c(Cl)c3)c21 [TAK-285] (top concentration 2500 nM): 0
9. Cc1cc(F)c(C(=O)Nc2cccc(-c3nncn3C(C)C)n2)cc1-n1cnc(C2CC2)c1 [Selonsertib] (top concentration 1000 nM): 0.2
10. C[C@@H]1C[C@H]2[C@@H]3CCC4=CC(=O)C=C[C@]4(C)[C@@]3(F)[C@@H](O)C[C@]2(C)[C@@]1(O)C(=O)CO [Dexamethasone] (top concentration 10000 nM): 36.7
11. CCC(C)(C)C(=O)O[C@H]1C[C@@H](C)C=C2C=C[C@H](C)[C@H](CC[C@@H]3C[C@@H](O)CC(=O)O3)[C@H]21 [Simvastatin] (top concentration 10000 nM): 2.58
12. C/C=C1\NC(=O)[C@H]2CSSCC/C=C/[C@H](CC(=O)N[C@H](C(C)C)C(=O)N2)OC(=O)[C@H](C(C)C)NC1=O [Romidepsin] (top concentration 1000 nM): 3.06
13. COCCNCc1ccc(-c2cc3nccc(Oc4ccc(NC(=S)NC(=O)Cc5ccc(F)cc5)cc4F)c3s2)nc1 [Glesatinib] (top concentration 2500 nM): 0.14
14. Cc1cnc(NC(=O)Nc2cc(Br)c(C)cc2OC[C@@H]2CNCCO2)cn1 [Rabusertib] (top concentration 1000 nM): 0.16
15. COc1cc(Nc2ncc(F)c(Nc3ccc4c(n3)N(COP(=O)(O)O)C(=O)C(C)(C)O4)n2)cc(OC)c1OC [Fostamatinib] (top concentration 2500 nM): -2.74
16. CC1=NN(c2ccc(C(=O)O)cc2)C(=O)C1=Cc1ccc(-c2cc(C)c(C)cc2[N+](=O)[O-])o1 [C646] (top concentration 25000 nM): -2.06
17. Oc1ncnc2[nH]ncc12 [Allopurinol] (top concentration 10000 nM): -0.64
18. Cc1ccc(F)c(NC(=O)Nc2ccc(-c3cccc4[nH]nc(N)c34)cc2)c1 [Linifanib] (top concentration 1000 nM): -1.12
19. CC[C@]12C=CCN3CC[C@@]4(c5cc([C@@]6(C(=O)OC)C[C@@H]7C[C@@H](C(C)(F)F)CN(Cc8c6[nH]c6ccccc86)C7)c(OC)cc5N(C)[C@H]4[C@@](O)(C(=O)OC)[C@@H]1OC(C)=O)[C@@H]32 [Vinflunine] (top concentration 1000 nM): 0.58
20. CC(=O)Nc1cccc(-n2c(=O)n(C3CC3)c(=O)c3c(Nc4ccc(I)cc4F)n(C)c(=O)c(C)c32)c1 [Trametinib] (top concentration 250 nM): 0.06
21. COc1cc(NS(C)(=O)=O)ccc1Nc1c2ccccc2nc2ccccc12 [Amsacrine] (top concentration 10000 nM): 13.2
22. COc1cc2/c(=N/c3ccc(Br)cc3F)nc[nH]c2cc1OCC1CCN(C)CC1 [Vandetanib] (top concentration 1000 nM): -0.22
23. C[C@]1(c2nc3c(C(N)=O)cccc3[nH]2)CCCN1 [Veliparib] (top concentration 10000 nM): 6.72

* * *

Test system: MOLT-16
test-details: selective drug sensitivity score (sDSS, relative to normal bone marrow) (sDSS (score)); higher = more potent and effective on the cell line relative to normal bone marrow cells
protocol-conditions: 72 h
endpoint-label: selective drug sensitivity score

1) CS(=O)(=O)N1CCN(Cc2cc3nc(-c4cccc5[nH]ncc45)nc(N4CCOCC4)c3s2)CC1 [Pictilisib] (top concentration 10000 nM): 4.16
2) CC[C@H](Nc1ncnc2[nH]cnc12)c1nc2cccc(F)c2c(=O)n1-c1ccccc1 [Idelalisib] (top concentration 10000 nM): 1.24
3) CS(=O)(=O)c1ccc(C(=O)Nc2ccc(Cl)c(-c3ccccn3)c2)c(Cl)c1 [Vismodegib] (top concentration 10000 nM): -1.14
4) C=CCc1cccc(/C=N/NC(=O)CN2CCN(Cc3ccccc3)CC2)c1O [PAC-1] (top concentration 10000 nM): 2.68
5) C=CCN(/C=C1/C(=O)O[C@H](COC)[C@@]2(C)C1=C(O)C(=O)C1=C2[C@H](OC(C)=O)C[C@]2(C)C(=O)CC[C@@H]12)CC=C [Sonolisib] (top concentration 10000 nM): -0.76
6) CCCOc1ccn2c(C(C)=O)cc(-c3ccccc3S(C)(=O)=O)c2c1 [GSK2801] (top concentration 10000 nM): -0.16

* * *

Tested on: MHH-CALL-3
test-details: selective drug sensitivity score (sDSS, relative to normal bone marrow) (sDSS (score)); higher = more potent and effective on the cell line relative to normal bone marrow cells
protocol-conditions: 72 h
I would appreciate it if you labelled entries Satisfied when selective drug sensitivity score is 0 or higher, otherwise Not satisfied.

1) CC(C)NC(=O)COc1cccc(-c2nc(Nc3ccc4[nH]ncc4c3)c3ccccc3n2)c1 [KD025] (top concentration 5000 nM): Not satisfied
2) CCN1CCN(Cc2ccc(Nc3ncc(F)c(-c4cc(F)c5nc(C)n(C(C)C)c5c4)n3)nc2)CC1 [Abemaciclib] (top concentration 2500 nM): Satisfied
3) Cn1nnc2c(C(N)=O)ncn2c1=O [Temozolomide] (top concentration 100000 nM): Satisfied
4) Nc1nc(Cl)nc2c1ncn2[C@@H]1O[C@H](CO)[C@@H](O)[C@@H]1F [Clofarabine] (top concentration 10000 nM): Satisfied
5) CC(C)C(=O)Nc1ccc([N+](=O)[O-])c(C(F)(F)F)c1 [Flutamide] (top concentration 10000 nM): Not satisfied
6) C[C@@H](Oc1cc(-c2cnn(C3CCNCC3)c2)cnc1N)c1c(Cl)ccc(F)c1Cl [Crizotinib] (top concentration 1000 nM): Not satisfied
7) O=C1c2c(O)ccc(O)c2C(=O)c2c(NCCNCCO)ccc(NCCNCCO)c21 [Mitoxantrone] (top concentration 1000 nM): Satisfied
8) Oc1ccc2c(c1)CC[C@H](c1ccccc1)[C@@H]2c1ccc(OCCN2CCCC2)cc1 [Lasofoxifene] (top concentration 1000 nM): Not satisfied
9) O=C(Nc1cccc(Nc2ncc(Br)c(NCCc3cnc[nH]3)n2)c1)N1CCCC1 [BX-912] (top concentration 10000 nM): Satisfied
10) COc1cccc2c1C(=O)c1c(O)c3c(c(O)c1C2=O)C[C@@](O)(C(C)=O)C[C@@H]3O[C@H]1C[C@H](N)[C@H](O)[C@H](C)O1 [Daunorubicin] (top concentration 1000 nM): Satisfied
11) N#CCNC(=O)c1ccc(-c2ccnc(Nc3ccc(N4CCOCC4)cc3)n2)cc1 [Momelotinib] (top concentration 10000 nM): Not satisfied
12) CC(C)Oc1ccc(C(=O)N[C@H](CNC(=O)CN(C)C)Cc2ccc(-c3cn4cccc([C@H](C)O)c4n3)cc2)cc1Cl (top concentration 10000 nM): Not satisfied
13) CS(=O)(=O)c1ccc(C(=O)Nc2ccc(Cl)c(-c3ccccn3)c2)c(Cl)c1 [Vismodegib] (top concentration 10000 nM): Not satisfied
14) CC(C)c1c(C(=O)Nc2ccccc2)c(-c2ccccc2)c(-c2ccc(F)cc2)n1CC[C@@H](O)C[C@@H](O)CC(=O)O [Atorvastatin] (top concentration 10000 nM): Not satisfied
15) Cc1c(C(=O)Nc2ccc(N3C[C@@H](C)O[C@@H](C)C3)nc2)cccc1-c1ccc(OC(F)(F)F)cc1 [Sonidegib] (top concentration 10000 nM): Not satisfied
16) CCCOc1ccn2c(C(C)=O)cc(-c3ccccc3S(C)(=O)=O)c2c1 [GSK2801] (top concentration 10000 nM): Not satisfied
17) COc1cc2ncnc(Nc3cccc(Cl)c3F)c2cc1OC(=O)N1CCN(C)C[C@H]1C [AZD3759] (top concentration 1000 nM): Not satisfied
18) CC1(C)NC(=O)N(c2ccc([N+](=O)[O-])c(C(F)(F)F)c2)C1=O [Nilutamide] (top concentration 10000 nM): Not satisfied
19) Nc1nc2cc(-c3ccc4ncc(C(=O)N5CCOCC5)n4c3)ccc2o1 [Serabelisib] (top concentration 10000 nM): Not satisfied
20) CC(C)(C)c1cnc(CSc2cnc(NC(=O)C3CCNCC3)s2)o1 [SNS-032] (top concentration 10000 nM): Not satisfied
21) Cc1ccc(C(=O)Nc2cccc(C(F)(F)F)c2)cc1Nc1nc(-c2cccnc2)nc2c1cnn2C [NVP-BHG712] (top concentration 10000 nM): Satisfied
